assay: clinical; details: human, plasma, oral, 160 mg, Cmax, 160 mg t.i.w., cycle 1 Day 1, mean
outcomeMeasure: Cmax (ng/mL)
Just the number in ng/mL, nothing appended.

input: Report Cmax for `C=CC(=O)N1CC[C@H](n2nc(C#Cc3cc(OC)cc(OC)c3)c3c(N)ncnc32)C1` please.
output: 819

====

assay: clinical; settings: human, plasma, oral, 56 mg, Cmax, 56 mg t.i.w., cycle 1 Last Wednesday, mean
outcomeMeasure: Cmax
A bare number is not enough; add the unit after it.

input: Report Cmax for `C=CC(=O)N1CC[C@H](n2nc(C#Cc3cc(OC)cc(OC)c3)c3c(N)ncnc32)C1` please.
output: 930 ng/mL

Value source: paper PMC9743148
